Biological target: full length active recombinant SYK enzyme (Homo sapiens)
Construct: full length active recombinant SYK enzyme (Millipore, Calif.); purchased Millipore
Experiment: Inhibition of Syk tyrosine phosphorylation activity (LANCE TR-FRET)
Assay type: biochemical
Conditions: Table 3; 1 nM SYK, 100 μM ATP; read-out: Syk IC50 code
pIC50: −log10 of the molar value.
Each entry below carries its reported pIC50.

These solved cases illustrate the format of a correct answer.
{"molecule": "CC(C)(C)OC(=O)N1CCC(Nc2nc(Nc3ccc4cn[nH]c4c3)nc3[nH]ccc23)CC1 [Example 57]", "quantity-kind": "pIC50", "value-reported": "< 6.00"}
{"molecule": "Brc1c[nH]c2nc(Nc3ccc4cn[nH]c4c3)nc(NC3CCC3)c12 [Example 49]", "quantity-kind": "pIC50", "value-reported": "8.00 to 9.00"}

Please indicate recorded pIC50 of CC(=O)N1CCN(c2ccc(Nc3nc(N[C@H](C)CO)c4cc[nH]c4n3)cc2)CC1 [Example 98A] measured with full length active recombinant SYK enzyme (Homo sapiens).
6.00 to 7.00

Jot down pIC50 (full length active recombinant SYK enzyme (Homo sapiens)) of CC(=O)N(C)c1ccc(Nc2nc(NCCN)c3cc[nH]c3n2)cc1 [Example 64] .
6.00 to 7.00
